Source listed as patent US10525055B2.

Assay: Plasma stability assay, rat plasma
Assay type: in vitro ADME
Settings: 37° C., 10 μM, 120 min
readout-type: % remaining at time point in minutes, 120 min (%)
Numbers only, in %.

- compound: "CCCCCCCCOC(=O)Oc1ccc2c3c1O[C@H]1C(=O)CC[C@@]4(O)C(C2)N(CC2CC2)CC[C@]314"
  scale-unit: "%"
  assay-value: 0
- compound: "C=C1CC[C@@]2(O)C3Cc4ccc(OC(=O)OCCCCCCCC)c5c4[C@@]2(CCN3CC2CC2)[C@H]1O5"
  scale-unit: "%"
  assay-value: 0
- compound: "C=C1CC[C@@]2(O)C3Cc4ccc(OC(=O)OCCCCCCCCCCCCC)c5c4[C@@]2(CCN3CC2CC2)[C@H]1O5"
  scale-unit: "%"
  assay-value: 40.3
- compound: "C=C1CC[C@@]2(O)C3Cc4ccc(OC(=O)CCCCCCC/C=C/CCCCCCCC)c5c4[C@@]2(CCN3CC2CC2)[C@H]1O5"
  scale-unit: "%"
  assay-value: 69.3
- compound: "CCCCCCCCCCCCOC(=O)Oc1ccc2c3c1O[C@H]1C(=O)CC[C@@]4(O)C(C2)N(CC2CC2)CC[C@]314"
  scale-unit: "%"
  assay-value: 0.3

Provide % remaining at time point in minutes, 120 min for all items below, preserving their order.
1. CCCCCCCCCCCCCCCCCCCC(=O)Oc1ccc2c3c1O[C@H]1C(=O)CC[C@@]4(O)C(C2)N(CC2CC2)CC[C@]314
2. C=C1CC[C@@]2(O)C3Cc4ccc(OC(=O)OCCCCCCCCCCCCCCCC)c5c4[C@@]2(CCN3CC2CC2)[C@H]1O5
3. CCCCCCCCCCOC(=O)Oc1ccc2c3c1O[C@H]1C(=O)CC[C@@]4(O)C(C2)N(CC2CC2)CC[C@]314
4. C=C1CC[C@@]2(O)C3Cc4ccc(OC(=O)CCCCCCCCCCC)c5c4[C@@]2(CCN3CC2CC2)[C@H]1O5 [Compound 59, reference compound]
5. C=C1CC[C@@]2(O)C3Cc4ccc(OC(=O)OCCCCCCCCCC)c5c4[C@@]2(CCN3CC2CC2)[C@H]1O5
6. C=C1CC[C@@]2(O)C3Cc4ccc(OC(=O)CCCCCCC/C=C\CCCCCCCC)c5c4[C@@]2(CCN3CC2CC2)[C@H]1O5
7. C=C1CC[C@@]2(O)C3Cc4ccc(OCOC(=O)OCCCCCCCCCCCCCC)c5c4[C@@]2(CCN3CC2CC2)[C@H]1O5

1. 102.7
2. 71.5
3. 0
4. 0.7
5. 0.3
6. 66.3
7. 69.3

----------
Assay: Solubility determination in oil (cottonseed oil, sesame oil)
Conditions: Sesame oil; heating temp. 60 °C, obs. temp. 25 °C
readout-type: Approximate Solubility (mg/mL) in Excipient: Sesame oil

Please give Approximate Solubility (mg/mL) in Excipient: Sesame oil, item by item, for the list that follows.
1. CCCCCCCCCCCCCCC(=O)Oc1ccc2c3c1O[C@H]1C(=O)CC[C@@]4(O)C(C2)N(CC2CC2)CC[C@]314 [Compound 58]
2. CCCCCCCCCCCCCCOC(=O)OCOc1ccc2c3c1O[C@H]1C(=O)CC[C@@]4(O)C(C2)N(CC2CC2)CC[C@]314 [Compound 27]

1: 99.4 to 198.8 mg/mL; 2: >399.2 mg/mL

Can you give me Approximate Solubility (mg/mL) in Excipient: Sesame oil for all of these, one by one?
1. CCCCCCCCCCCCOC(=O)OCOc1ccc2c3c1O[C@H]1C(=O)CC[C@@]4(O)C(C2)N(CC2CC2)CC[C@]314 [Compound 29]
2. C=C1CC[C@@]2(O)C3Cc4ccc(OC(=O)OCCCCCCCCCCCCCCC)c5c4[C@@]2(CCN3CC2CC2)[C@H]1O5 [Compound 32]
3. CCCCCCCCCCCCCCCCCCCC(=O)Oc1ccc2c3c1O[C@H]1C(=O)CC[C@@]4(O)C(C2)N(CC2CC2)CC[C@]314 [Compound 50]
4. CCCCCCCCCCCCCCCC(=O)OCOc1ccc2c3c1O[C@H]1C(=O)CC[C@@]4(O)C(C2)N(CC2CC2)CC[C@]314 [Compound 49]

>416.5 mg/mL
>410 mg/mL
<52 mg/mL
<51 mg/mL
